Hello, the source for this data is PubChem BioAssay (NCI), in case you need it.

List of growth values.
System: CAKI-1 renal
Assay: NCI-60 one-dose screen, 48 h (100 = growth as untreated, 0 = no growth, -100 = all killed)
Conditions: 10 µM
Description: Growth inhibition of the CAKI-1 human tumor cell line is measured as a screen for anti-cancer activity. Cells are grown in 96 well plates and exposed to the test compound for 48 hours. Compounds are tested at a single concentration, which is 10^-5 M for most compounds. The reported endpoint is percent growth (GI% or GIPRCNT), where numbers from 0 - 100% represent growth inhibition, and numbers from -100% - 0 represent cell death. For example, a value of 40 represents 60% growth inhibition. […]
The panel holds about 83,000 compounds, 20% with a hit somewhere; the sample as a whole holds those more often. The source made the active and inactive calls. The calls were made as follows: active = growth percent below 10; inactive = the rest.

The molecule listed as `Nc1nnc(-c2c[nH]c3ncc(Br)cc23)c(-c2c[nH]c3ccc(Br)cc23)n1` shows growth equal to 28.1% (inactive)

molecule `O=C(Nc1ccc(OCC(=O)c2ccc(Cl)cc2)cc1)Nc1ccc(Cl)c(C(F)(F)F)c1` , growth observed: 41.1% (inactive)

Short answer for `Cc1ccc(S(=O)(=O)N2CCN(S(=O)(=O)c3oc(-c4ccccc4)nc3C#N)CC2)cc1` : growth was 69.8% (inactive)

Reported growth of `COc1ccc(C(=O)COc2ccc(NC(=O)Nc3ccccc3)cc2)cc1` : 72.7% (inactive)

----------
System: MDA-MB-468 breast
Assay: NCI-60 one-dose screen, 48 h
Details: 10 µM unless noted
About 83,000 compounds went through this panel and 20% of them were active in at least one assay; those are over-represented in the sample as a whole. Activity calls are given as the source filed them. Rule for the calls: active = growth percent below 10; inactive = the rest.
Give your call using only these classes: yes (active), no (inactive)

Here's what some known entries look like.
molecule	class
CS(=O)(=O)OC1CC(n2ccc(=O)[nH]c2=O)OC1COC(c1ccccc1)(c1ccccc1)c1ccccc1 (configuration not stated)	no
Cc1cc2c(-c3nc4ccccn4c3NC3CCCCC3)c(O)c(O)cc2c(O)c1-c1c(C)cc2c(-c3nc4ccccn4c3NC3CCCCC3)c(O)c(O)cc2c1O	no

Prompt line: For `COc1cc(/C=N/Nc2ccccc2F)cc(OC)c1OC` , which call appears in the assay record?
Response line: no

Prompt line: Look up the recorded call for `C=CN(C)S(C)(=O)=O` in this test.
Response line: yes

Prompt line: Per the assay record, what outcome was assigned to `O=C(Cn1nnc2ccccc21)Nc1ccc(-c2nc3ccccc3s2)cc1` ?
Response line: yes

Prompt line: # outcome recorded in this test, key = `CN(C)c1ccc(/C=C/C(=O)c2ccccc2)cc1`
Response line: no

Prompt line: // return assay outcome for `Cn1c(N)c(N=Cc2ccccc2)c(=O)n(C)c1=O`
Response line: no

Prompt line: Check the results log: what was the call for `CCOc1cccc(Nc2nc(N)nc3[nH]c4ccc(O)cc4c23)c1` ?
Response line: yes

Prompt line: Answer briefly: the call reported for Nc1ncnc2c1C(c1ccc([N+](=O)[O-])cc1)c1sc3c(F)cccc3c1O2 (configuration not stated) in this assay.
Response line: yes

Prompt line: Write down the call the test reported for this molecule. Item: N#CC1C(C#N)C2c3ccccc3C=CN2C1C(=O)c1ccc(Br)cc1 (configuration not stated)
Response line: no

Prompt line: What call does the record list for COc1ccc2c(c1)OC(N)=C(C#N)C2c1cc(OC)c(OC)c(OC)c1 (configuration not stated) ?
Response line: yes

Prompt line: Recorded test call requested for `O=c1c2cc(F)ccc2sc2c(N3CCCCC3)nc3ccccc3c12`
Response line: no

Prompt line: For `CCOc1cc2c(Cl)ncnc2c(OCC)c1OCC` , what call appears in the results of this test?
Response line: yes

Prompt line: How was `c1ccc2[nH]c(SSc3nc4ncncc4[nH]3)nc2c1` classified in this test?
Response line: no

Prompt line: In this assay, the call recorded for `NCCCN(CCCN)CCCNCc1c2ccccc2c(CNCCCN(CCCN)CCCN)c2ccccc12` was what?
Response line: no

Prompt line: For `CN[C@@H](CCCNC(N)=NC/C=C(/C)CCC=C(C)C)C(=O)N(C)[C@@H](CCCNC(N)=NCC=C(C)C)C(=O)N[C@H](C)[C@H](OS(=O)(=O)O)c1ccc(OS(=O)(=O)O)c(COS(=O)(=O)O)c1` , which call appears in the assay record?
Response line: no

Prompt line: Record request — test call for `O=C1c2c(c3c4cc(Br)ccc4[nH]c3c3ccc4ccccc4c23)C(=O)N1CCN1CCCCC1`
Response line: no

Prompt line: Hey, what did the test say about `C[C@@H]1CC[C@@H]2[C@@H]1[C@H](OC(=O)/C=C/c1ccccc1)[C@]1(C3CCCCC3)C[C@@H](NC(=O)CO)[C@@]2(C)O1` ?
Response line: no
